From: paper PMC7949025

# experimental-system: T1, biotinylated A93D-PNT domain (ETV6 residues 43-135, A93D, with Avitag) (human, UniProt P41212 43-135, A93D, biotin on the Avitag (~50 to 95% biotinylated))
# T1 construct: ETV6, human, residues 43-135; made from the V112E construct by introducing A93D and E112V; also called biotinylated A93D-PNT domain ligand; A93D-PNT domain ligand; source: E. coli BL21 (λDE3) co-transformed with pET21a-BirA, purified (Ni-NTA, thrombin cleavage); not shown: His6, N-terminal, cleaved; Avitag, N-terminal, kept
# T1 sequence (looked up): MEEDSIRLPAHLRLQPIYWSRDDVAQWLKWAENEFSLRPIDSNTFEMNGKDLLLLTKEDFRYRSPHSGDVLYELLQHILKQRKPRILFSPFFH
# assay-protocol: SPR; biotinylated A93D-PNT domain ligand captured on streptavidin Sensor Chip SA, PNT domain analytes flowed; Biacore X100, 25 °C, HBS-EP+ (10 mM HEPES, 150 mM NaCl, 3 mM EDTA, 0.05% v/v Tween-20, pH 7.4); analyte 0.2-60 nM, re-run at 20-6000 nM if KD > 60 nM
# condition-context: both partners purified
Measured koff accompanies every entry in the list below.
Output spec: scalar in s⁻¹, unitless text.

As a guide, the following entries are already answered.
binder	unit-symbol	value-observed
L97A-V112E-PNT domain (domain or fragment, human, UniProt P41212 40-125, looked up, ETV6 PNT domain, human; source: E. coli BL21 (λDE3), purified (Ni-NTA, thrombin cleavage); not shown: His6, N-terminal, cleaved) ALRMEEDSIRLPAHLRLQPIYWSRDDVAQWLKWAENEFSLRPIDSNTFEMNGKALLLATKEDFRYRSPHSGDELYELLQHILKQRK	s⁻¹	0.068
E88A-V112E-PNT domain (domain or fragment, human, UniProt P41212 40-125, looked up, ETV6 PNT domain, human; source: E. coli BL21 (λDE3), purified (Ni-NTA, thrombin cleavage); not shown: His6, N-terminal, cleaved) ALRMEEDSIRLPAHLRLQPIYWSRDDVAQWLKWAENEFSLRPIDSNTFAMNGKALLLLTKEDFRYRSPHSGDELYELLQHILKQRK	s⁻¹	0.004

Field: next binder
[in] # get_value(readout='koff', item= V112E-PNT domain (ETV6 residues 40-125 with the V112E mutation) (domain or fragment, human, UniProt P41212 40-125, looked up, ETV6 PNT domain fragment, human, residues 40-125; expressed as residues 1-125 and cut by thrombin at the internal site V37-P38-R39/A40; 15N- or 13C/15N-labelled or unlabelled in NMR; also called V112E-PNT domain analyte; source: E. coli BL21 (λDE3), purified (Ni-NTA, thrombin cleavage, Superdex S75; size exclusion omitted for SPR); not shown: His6, N-terminal, cleaved) ALRMEEDSIRLPAHLRLQPIYWSRDDVAQWLKWAENEFSLRPIDSNTFEMNGKALLLLTKEDFRYRSPHSGDELYELLQHILKQRK )
[out] 0.0023
